Values from ChEMBL document CHEMBL1154322

Tested on: BXPC-3
Experiment: Antiproliferative activity against human BxPC3 cells after 72 hrs by MTT assay
Assay type: functional, cell-based
Settings: BXPC-3, 72 h

[
  {
    "Sample smiles": "CC(C)(SCC(=O)Nc1ccc([As](O)O)cc1)[C@@H](N)C(=O)O",
    "IC50 (µM)": 21
  },
  {
    "Sample smiles": "N[C@@H](CCC(=O)N[C@@H](CSCC(=O)Nc1ccc([As](O)O)cc1)C(=O)NCC(=O)O)C(=O)O",
    "IC50 (µM)": 270
  }
]

---

Let's look at some compounds and their measured IC50.
Tested on: HT-1080
Experiment: Antiproliferative activity against human HT1080 cells after 72 hrs by MTT assay
Format: functional, cell-based
Settings: HT-1080, 72 h
Metric name: IC50 (µM)

[
  {
    "Sample smiles": "CC(C)(SCC(=O)Nc1ccc([As](O)O)cc1)[C@@H](N)C(=O)O",
    "Subject of test": "HT-1080",
    "Metric name": "IC50",
    "Quantitative result": 4.1
  },
  {
    "Sample smiles": "N[C@@H](CCC(=O)N[C@@H](CSCC(=O)Nc1ccc([As](O)O)cc1)C(=O)NCC(=O)O)C(=O)O",
    "Subject of test": "HT-1080",
    "Metric name": "IC50",
    "Quantitative result": 25
  }
]
